Assay: Inhibition of rabbit muscle Glycogen phosphorylase a using glucose-1-phosphate as substrate
Parameters: species or system Oryctolagus cuniculus
Quantity: pKi
Numbers only, as −log10 of the molar value.

Below are worked cases with known answers.
Request: Quick one: pKi of O=C1N=C(c2ccccc2)N[C@@]12O[C@H](CO)[C@@H](O)[C@H](O)[C@H]2O ?
Result: 5.35

Request: Endpoint output: pKi of O=C1N=C(c2cccc3ccccc23)N[C@@]12O[C@H](CO)[C@@H](O)[C@H](O)[C@H]2O . Value?
Result: 5.18

Request: What value of pKi has been reported for the following compound? O=C1N=C(c2ccc3ccccc3c2)N[C@@]12O[C@H](CO)[C@@H](O)[C@H](O)[C@H]2O
Result: 5.95

Please state pKi for every compound in the list that follows.
1. O=C1N=C(c2cccc3ccccc23)N[C@]12O[C@H](CO)[C@@H](O)[C@H](O)[C@H]2O
2. O=C1N=C(c2ccc3ccccc3c2)N[C@]12O[C@H](CO)[C@@H](O)[C@H](O)[C@H]2O
3. O=C1N=C(c2ccccc2)N[C@]12O[C@H](CO)[C@@H](O)[C@H](O)[C@H]2O

Result:
1: 3.19; 2: 3.67; 3: 4.47

* * *

Experiment: Inhibition of human liver Glycogen phosphorylase a using glucose-1-phosphate as substrate
Please provide measured log10 of Ki for the entries that follow.
In plain terms, each number is the log10 of measured Ki in µM.

Would you please look over these solved cases?
Request: # input compound: O=C1N=C(c2ccc3ccccc3c2)N[C@@]12O[C@H](CO)[C@@H](O)[C@H](O)[C@H]2O ; wanted: its log10 of Ki
Result: 0.24

Request: # log10 of Ki lookup, item O=C1N=C(c2cccc3ccccc23)N[C@@]12O[C@H](CO)[C@@H](O)[C@H](O)[C@H]2O
Result: 1.35

Request: So what's the measured log10 of Ki for this one? O=C1N=C(c2ccccc2)N[C@@]12O[C@H](CO)[C@@H](O)[C@H](O)[C@H]2O
Result: 0.92

Request: Entry O=C1N=C(c2ccc3ccccc3c2)N[C@]12O[C@H](CO)[C@@H](O)[C@H](O)[C@H]2O : reported log10 of Ki = ?
Result: 2.57

Request: Which measured log10 of Ki value corresponds to O=C1N=C(c2ccccc2)N[C@]12O[C@H](CO)[C@@H](O)[C@H](O)[C@H]2O ?
Result: 1.99

***
Request: Tell me the measured log10 of Ki of O=C1N=C(c2cccc3ccccc23)N[C@]12O[C@H](CO)[C@@H](O)[C@H](O)[C@H]2O , please.
Result: 3.07

* * *

Experiment: Inhibition of rabbit muscle Glycogen phosphorylase b using glucose-1-phosphate as substrate in presence of AMP
Parameters: species or system Oryctolagus cuniculus
Quantity: Ki (µM)
Numbers only, in µM.

Request: // lookup Ki for O=C1N=C(c2ccccc2)N[C@]12O[C@H](CO)[C@@H](O)[C@H](O)[C@H]2O
Result: 136

Hey, quick one: what's Ki for each of these?
1. O=C1NC(=S)N[C@@]12O[C@H](CO)[C@@H](O)[C@H](O)[C@H]2O
2. O=C1NC(=O)[C@@]2(N1)O[C@H](CO)[C@@H](O)[C@H](O)[C@H]2O
3. O=C1N=C(c2cccc3ccccc23)N[C@@]12O[C@H](CO)[C@@H](O)[C@H](O)[C@H]2O

Result:
5.1
3.1
13

Please state, for each entry, its recorded Ki.
1. O=C1N=C(c2ccc3ccccc3c2)N[C@@]12O[C@H](CO)[C@@H](O)[C@H](O)[C@H]2O
2. O=C1N=C(c2ccccc2)N[C@@]12O[C@H](CO)[C@@H](O)[C@H](O)[C@H]2O

Result:
1. 2.11
2. 9
